Entry source: ChEMBL document CHEMBL4387786

Tested on: Bacillus cereus
test-name: Antibacterial activity against Bacillus cereus by CLSI guideline based broth microdilution method
Assay type: functional
value-kind: MIC

Examples with answers:
CC(C)=CCc1c(O)c(C(=O)/C=C/c2ccccc2)c2c(c1O)[C@H]1[C@@H]3[C@@H](CC[C@]3(C)O2)C1(C)C; > 100 µM
CC(=O)c1c(O)c(C)c(O)c(Cc2c3c(c(O)c4c2OC(c2ccc(O)cc2)CC4=O)C=CC(C)(C)O3)c1O (stereo unspecified); 30.1 µM
CC1(C)C=Cc2c(O)c3c(c(CC(=O)O)c2O1)O[C@H](c1ccccc1)CC3=O; > 100 µM

Please look up its MIC: "COCc1c2c(c(O)c3c1O[C@H](c1ccccc1)CC3=O)C=CC(C)(C)O2"
> 100 µM

Please look up its MIC: CC(=O)c1c(O)c(CC=C(C)C)c2c3c1OC1(C)CCC(C3C1)C(C)(C)O2 (racemic)
> 100 µM

Please look up its MIC: CC(=O)c1c(O)c(C)c(O)c(Cc2c3c(c(O)c4c2OC(c2ccccc2)CC4=O)C=CC(C)(C)O3)c1O (stereo unspecified)
> 100 µM

###

Tested on: Bacillus cereus
test-name: Antibacterial activity against Bacillus cereus by CLSI guideline based broth microdilution method
Format: functional
# MIC listing for each entry below
# number only, unit µM dropped from output

Examples with answers:
CC(=O)c1c(O)c(C)c(O)c(Cc2c(O)c(CC=C(C)C)c(O)c3c2OC(c2ccccc2)CC3=O)c1O (stereo not given); 30.9
CC(=O)c1c(O)c(C)c(O)c(Cc2c(O)c3c(c(C(=O)/C=C/c4ccc(O)cc4)c2O)OC(C)(C)C=C3)c1O; 3.8
CC(=O)c1c(O)c(C)c(O)c(Cc2c(O)c3c(c(C(=O)/C=C/c4ccccc4)c2O)OC(C)(C)C=C3)c1O; 15.5

Please look up its MIC: "CN[C@H](CC(C)C)C(=O)N[C@H]1C(=O)N[C@@H](CC(N)=O)C(=O)N[C@H]2C(=O)N[C@H]3C(=O)N[C@H](C(=O)N[C@H](C(=O)O)c4cc(O)cc(O)c4-c4cc3ccc4O)[C@H](O)c3ccc(c(Cl)c3)Oc3cc2cc(c3O[C@@H]2O[C@H](CO)[C@@H](O)[C@H](O)[C@H]2O[C@H]2C[C@](C)(N)[C@H](O)[C@H](C)O2)Oc2ccc(cc2Cl)[C@H]1O"
0.1
